What pKi was measured for each of the following?
Biological target: LRRK2 (Homo sapiens, UniProt Q5S007, G2019S)
Construct: purchased Invitrogen PV4882
Sequence (Q5S007 whole entry G2019S): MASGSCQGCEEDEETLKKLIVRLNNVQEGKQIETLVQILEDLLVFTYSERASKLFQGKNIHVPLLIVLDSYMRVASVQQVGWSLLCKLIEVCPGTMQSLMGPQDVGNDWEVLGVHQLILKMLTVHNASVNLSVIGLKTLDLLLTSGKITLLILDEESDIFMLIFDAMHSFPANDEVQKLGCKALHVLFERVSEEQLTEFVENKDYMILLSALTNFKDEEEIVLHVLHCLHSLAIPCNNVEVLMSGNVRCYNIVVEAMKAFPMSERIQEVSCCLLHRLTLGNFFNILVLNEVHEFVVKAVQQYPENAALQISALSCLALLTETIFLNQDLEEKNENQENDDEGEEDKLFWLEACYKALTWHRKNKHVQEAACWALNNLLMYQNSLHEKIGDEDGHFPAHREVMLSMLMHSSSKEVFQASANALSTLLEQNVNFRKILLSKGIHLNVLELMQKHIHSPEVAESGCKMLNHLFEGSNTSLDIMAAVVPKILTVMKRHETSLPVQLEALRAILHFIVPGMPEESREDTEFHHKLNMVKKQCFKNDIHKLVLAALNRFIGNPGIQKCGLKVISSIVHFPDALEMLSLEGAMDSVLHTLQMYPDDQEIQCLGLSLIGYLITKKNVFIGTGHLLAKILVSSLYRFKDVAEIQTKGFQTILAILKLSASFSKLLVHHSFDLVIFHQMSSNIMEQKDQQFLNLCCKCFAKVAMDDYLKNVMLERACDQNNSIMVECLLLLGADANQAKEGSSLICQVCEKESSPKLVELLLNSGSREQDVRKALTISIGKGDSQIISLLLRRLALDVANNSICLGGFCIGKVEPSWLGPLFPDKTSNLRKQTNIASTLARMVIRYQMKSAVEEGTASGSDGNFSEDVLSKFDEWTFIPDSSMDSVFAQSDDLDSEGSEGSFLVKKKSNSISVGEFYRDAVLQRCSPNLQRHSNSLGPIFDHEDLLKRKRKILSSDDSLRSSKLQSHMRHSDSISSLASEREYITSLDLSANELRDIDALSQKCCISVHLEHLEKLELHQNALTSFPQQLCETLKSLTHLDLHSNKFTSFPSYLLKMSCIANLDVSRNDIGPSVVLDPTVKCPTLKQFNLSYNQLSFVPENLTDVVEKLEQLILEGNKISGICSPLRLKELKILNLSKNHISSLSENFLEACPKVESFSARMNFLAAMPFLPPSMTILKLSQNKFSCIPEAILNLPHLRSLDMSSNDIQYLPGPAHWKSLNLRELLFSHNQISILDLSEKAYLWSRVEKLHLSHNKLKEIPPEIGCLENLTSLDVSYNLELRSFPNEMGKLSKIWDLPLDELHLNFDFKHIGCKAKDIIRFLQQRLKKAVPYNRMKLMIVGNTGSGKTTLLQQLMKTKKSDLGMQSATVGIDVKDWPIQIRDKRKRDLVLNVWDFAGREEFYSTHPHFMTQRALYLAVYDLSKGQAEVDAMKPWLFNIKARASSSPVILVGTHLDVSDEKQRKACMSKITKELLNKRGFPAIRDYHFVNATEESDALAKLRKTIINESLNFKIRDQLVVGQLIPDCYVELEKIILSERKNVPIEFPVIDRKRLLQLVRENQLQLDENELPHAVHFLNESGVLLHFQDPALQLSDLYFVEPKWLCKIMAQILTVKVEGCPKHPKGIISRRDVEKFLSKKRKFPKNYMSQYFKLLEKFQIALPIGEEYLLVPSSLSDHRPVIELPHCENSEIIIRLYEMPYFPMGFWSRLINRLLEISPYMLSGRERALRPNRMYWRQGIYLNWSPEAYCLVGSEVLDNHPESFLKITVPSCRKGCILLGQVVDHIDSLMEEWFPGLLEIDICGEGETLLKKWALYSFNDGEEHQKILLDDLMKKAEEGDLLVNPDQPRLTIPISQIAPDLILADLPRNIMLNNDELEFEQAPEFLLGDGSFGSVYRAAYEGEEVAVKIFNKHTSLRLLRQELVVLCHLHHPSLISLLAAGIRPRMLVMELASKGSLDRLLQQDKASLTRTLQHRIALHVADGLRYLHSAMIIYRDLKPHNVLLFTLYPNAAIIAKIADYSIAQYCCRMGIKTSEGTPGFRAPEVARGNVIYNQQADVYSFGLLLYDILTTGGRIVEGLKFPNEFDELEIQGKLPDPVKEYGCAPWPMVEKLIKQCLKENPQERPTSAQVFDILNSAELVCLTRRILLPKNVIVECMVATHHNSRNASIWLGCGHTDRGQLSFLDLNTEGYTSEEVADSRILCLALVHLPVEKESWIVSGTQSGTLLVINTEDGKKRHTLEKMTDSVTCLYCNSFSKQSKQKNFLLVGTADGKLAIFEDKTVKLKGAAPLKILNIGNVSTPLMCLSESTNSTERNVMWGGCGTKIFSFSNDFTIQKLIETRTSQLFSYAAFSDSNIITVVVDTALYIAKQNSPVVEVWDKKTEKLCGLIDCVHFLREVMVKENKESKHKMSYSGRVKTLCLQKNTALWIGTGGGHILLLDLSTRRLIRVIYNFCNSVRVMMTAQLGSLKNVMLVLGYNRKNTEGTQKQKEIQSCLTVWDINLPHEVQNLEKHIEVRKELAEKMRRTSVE
Experiment: In Vitro LRRK2 LabChip Assay (LRRK2 Ki)
Type: biochemical
Conditions: Table 5 compounds (formula I)
Answers are plain numbers, as −log10 of the molar value.

Solved cases below.
{"columns": ["compound", "pKi"],
 "data": [
  ["CNc1nc(Nc2cc(F)c(C(=O)N3C[C@H]4CC[C@@H](C3)O4)cc2OC)ncc1C(F)(F)F [Compound 5]", 8.75],
  ["CNc1nc(Nc2cc(C)c(C(=O)N3CCOCC3)cc2OCF)ncc1C(F)(F)F [Compound 88]", 9.00],
  ["CNc1nc(Nc2cc(OC)c(C(=O)N(C)c3cnn(C)c3)cc2Cl)ncc1C(F)(F)F [Compound 55]", 7.84],
  ["CNc1nc(Nc2cc(F)c(C(=O)N3CCOCC3)cc2OCCF)ncc1C(F)(F)F [Compound 48]", 8.46],
  ["CNc1nc(Nc2cc(C)c(C(=O)N3CCOCC3)cc2Cl)ncc1C(F)(F)F [Compound 2]", 8.15]
]}

# batch size: 8; output pKi per entry
1. COc1cc(Nc2ncc(C(F)(F)F)c(NC3CCC3)n2)c(Cl)cc1C(=O)N1CCOCC1 [Compound 113]
2. CNc1nc(Nc2cc(OC)c(C(=O)N3CCOCC3)cc2OC)ncc1C(F)(F)F [Compound 65]
3. CNc1nc(Nc2ccc(C(=O)N3CCOCC3)c(F)c2F)ncc1C(F)(F)F [Compound 12]
4. CNc1nc(Nc2cc(C)c(C(=O)N3CCOCC3)cc2OC(C)C)ncc1C(F)(F)F [Compound 99]
5. CNc1nc(Nc2cc(C)c(C(=O)N3CCOCC3)cc2OC)ncc1C(F)(F)F [Compound 3]
6. CNc1nc(Nc2cc(F)c(C(=O)N3CCN4CCCC4C3)cc2OC)ncc1C(F)(F)F (centres unmarked) [Compound 4]
7. CNc1nc(Nc2cc(OC)c(C(=O)N3CCCC3)cc2OCCF)ncc1C(F)(F)F [Compound 85]
8. CCNc1nc(Nc2cc(OC(F)F)c(C(=O)N3CCOCC3)cc2Cl)ncc1C(F)(F)F [Compound 78]

9.49
8.96
7.87
8.44
8.84
8.47
8.33
8.16
